pKi, Nonstructural protein 3 (Zika virus), per-entry values.
pKi: −log10 of the molar value. Positions of bridges follow the written chain, without caps; N, C: chain ends. Non-standard residues stand in square brackets, D forms with d. Residues, ends and D or L forms follow the SMILES beside them. NMeY = CN[C@@H](Cc1ccc(O)cc1)C(=O)O; Sar = CNCC(=O)O
measured-endpoint: pKi

compound	measured-number
CC[C@H](C)[C@@H]1NC(=O)CN(C)C(=O)[C@H](Cc2ccc(O)cc2)NC(=O)CSC[C@@H](C(N)=O)NC(=O)[C@@H]2CCCN2C(=O)[C@H]([C@@H](C)CC)NC(=O)[C@H](Cc2ccc(OC)cc2)N(C)C(=O)[C@H](Cc2ccc(OC)cc2)N(C)C(=O)[C@H](CC(N)=O)NC(=O)[C@H](Cc2ccc(O)cc2)NC(=O)[C@H](CCCCN)NC(=O)[C@H](C)NC1=O ({CH2CO}-Y[Sar]IAKYN[NMeY](Me)[NMeY](Me)IPC-NH2; thioether N-12)	4.69
CC[C@H](C)[C@@H]1NC(=O)[C@H](C)NC(=O)[C@@H](Cc2ccc(O)cc2)NC(=O)CSC[C@@H](C(N)=O)NC(=O)[C@H](CC(N)=O)NC(=O)[C@H](CC(C)C)N(C)C(=O)[C@H](Cc2ccc(O)cc2)NC(=O)[C@H](CCCCN)NC(=O)[C@H](CC(N)=O)NC(=O)[C@H](Cc2ccc(O)cc2)NC(=O)[C@H](Cc2ccc(OC)cc2)N(C)C(=O)[C@H]([C@@H](C)CC)NC1=O	5.46

Attribution: ChEMBL document CHEMBL4330179
